target: asialoglycoprotein receptor (ASGPR) on HepG2 cells (human) (UniProt P07306); test: flow cytometry, % FAM-positive HepG2 cells after 24 h with 40 nM ligand
Sequence (P07306 whole entry, chain 1 of 2): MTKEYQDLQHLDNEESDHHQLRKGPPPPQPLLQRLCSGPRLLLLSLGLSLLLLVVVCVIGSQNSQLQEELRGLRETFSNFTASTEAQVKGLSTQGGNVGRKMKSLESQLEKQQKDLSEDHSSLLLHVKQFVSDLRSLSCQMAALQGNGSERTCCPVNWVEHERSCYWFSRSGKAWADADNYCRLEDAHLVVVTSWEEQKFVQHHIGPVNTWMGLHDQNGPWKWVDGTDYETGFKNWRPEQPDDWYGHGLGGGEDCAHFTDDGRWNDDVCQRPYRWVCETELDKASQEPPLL
Sequence (P07307 whole entry, chain 2 of 2, further chain): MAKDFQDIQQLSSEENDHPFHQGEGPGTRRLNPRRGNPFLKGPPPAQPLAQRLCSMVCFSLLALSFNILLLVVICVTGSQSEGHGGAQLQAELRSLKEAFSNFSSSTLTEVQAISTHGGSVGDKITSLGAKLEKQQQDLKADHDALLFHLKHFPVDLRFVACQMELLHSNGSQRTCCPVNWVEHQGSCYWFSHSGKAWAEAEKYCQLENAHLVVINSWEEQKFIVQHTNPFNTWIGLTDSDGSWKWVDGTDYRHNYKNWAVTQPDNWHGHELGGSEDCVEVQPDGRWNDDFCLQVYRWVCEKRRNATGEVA
Square brackets hold non-standard residues; d marks the D form. Side chains are listed from the residue outwards. * marks the point of attachment. Gal‑1 = GalNAc linker: 5-(GalNAc-oxy)pentanoic acid (3-acetamido-4,5-diacetoxy-6-(acetoxymethyl)tetrahydropyran-2-yl-oxy)pentanoic acid; Gal‑3 = GalNAc linker: 4-(GalNAc-oxy)butanoic acid (3-acetamido-4,5-diacetoxy-6-(acetoxymethyl)tetrahydropyran-2-yl-oxy)butanoic acid; 5FAM = O=C1OC2(c3ccc(O)cc3Oc3cc(O)ccc32)c2ccc(C(=O)*)cc21; Linker2 = 6-aminohexyl amide linker; GalNAc = N-acetylgalactosamine
Exercise: state measured Efficiency (%) (proportion of FAM positive cells) for each of the binders provided.

*Q* Sample cyclo(K([Gal‑3-GalNAc])[dE]([Linker2-5FAM])K([Gal‑3-GalNAc])GK([Gal‑3-GalNAc])G) [5-FAM-CPMB-0033] — what was its Efficiency (%) (proportion of FAM positive cells)?
*A* 82.9%

*Q* Sample cyclo([dK]([Gal‑1-GalNAc])[dE]([Linker2-5FAM])[dK]([Gal‑1-GalNAc])G[dK]([Gal‑1-GalNAc])G) [5-FAM-CPMB-0021] — what was its Efficiency (%) (proportion of FAM positive cells)?
*A* 88.7%

*Q* Sample KEKGKG (head-to-tail cyclic; D-Lys at the three Lys positions and D-Glu; each D-Lys side chain carries GalNAc via linker Gal-5; D-Glu side chain carries Linker2 with 5-FAM) [5-FAM-CPMB-0025] — what was its Efficiency (%) (proportion of FAM positive cells)?
*A* 83.1%

*Q* Sample KEKGKG (head-to-tail cyclic; D-Glu; each Lys side chain carries GalNAc via linker Gal-4; D-Glu side chain carries Linker2 with 5-FAM) [5-FAM-CPMB-0034] — what was its Efficiency (%) (proportion of FAM positive cells)?
*A* 73.6%

*Q* Sample KEKGKG (head-to-tail cyclic; D-Glu; each Lys side chain carries GalNAc via linker Gal-5; D-Glu side chain carries Linker2 with 5-FAM) [5-FAM-CPMB-0035] — what was its Efficiency (%) (proportion of FAM positive cells)?
*A* 95.2%

*Q* Sample cyclo([dK]([Gal‑3-GalNAc])[dE]([Linker2-5FAM])[dK]([Gal‑3-GalNAc])G[dK]([Gal‑3-GalNAc])G) [5-FAM-CPMB-0023] — what was its Efficiency (%) (proportion of FAM positive cells)?
*A* 91.2%

*Q* Sample cyclo(K([Gal‑1-GalNAc])[dE]([Linker2-5FAM])K([Gal‑1-GalNAc])GK([Gal‑1-GalNAc])G) [5-FAM-CPMB-0031] — what was its Efficiency (%) (proportion of FAM positive cells)?
*A* 87.8%
